# Test system: RNA aptamer in cells
# Assay protocol: Labeling intracellular RNA aptamers in cells
# Assay type: cell-based
# Conditions used: cells not expressing the RNA aptamer (FIG. 17B)
Result type: Fluorescence of cells not expressing the RNA aptamer

INSERT INTO results (smiles_text, reported_result) VALUES
  ('CN(CCO)c1cc2sc(/C=C(\C#N)c3ccc(C#N)cc3)cc2s1', 'no fluorescence'),
  ('CN(CCO)c1ccc(/C=C(\C#N)c2ccc(C#N)cc2)cc1', 'no fluorescence'),
  ('CN(C)CCN(C)c1ccc(/C=C(\C#N)c2ccc(C#N)cc2)cc1', 'no fluorescence'),
  ('CN(CCO)c1ccc2cc(/C=C(\C#N)c3ccc(C#N)cc3)sc2c1', 'no fluorescence'),
  ('CN(C)CCN(C)c1cnc(/C=C(\C#N)c2ccc(C#N)cc2)cn1', 'no fluorescence'),
  ('CN(CCO)c1cnc(/C=C(\C#N)c2ccc(C#N)cc2)cn1', 'no fluorescence');

* * *

# Assay protocol: Fluorescence emission in glycerol versus methanol (viscosity response)
# Assay type: physicochemical
# Conditions used: 1×10^-5 M, maximum excitation wavelength of each fluorescent dye
Below, each of the compounds is paired with its reported Emission (nm) value.
Result type: Emission (nm)

INSERT INTO results (compound, result_type, reported_result) VALUES
  ('CN(CCO)c1ccc(/C=C(\C#N)c2ccc(C#N)cc2)cc1 [III-3]', 'Emission (nm)', 530),
  ('CN(CCO)c1ncc(/C=C(\C#N)c2ccc(C#N)cc2)cn1 [III-11]', 'Emission (nm)', 470),
  ('CN(CCO)c1cc2sc(/C=C(\C#N)c3ccc(C#N)cc3)cc2s1 [III-21]', 'Emission (nm)', 620),
  ('CNc1ccc2cc(/C=C(\C#N)c3ccc(C#N)cc3)sc2c1 [III-17]', 'Emission (nm)', 587),
  ('CN(C)c1ccc(/C=C(\C#N)c2ccc(C#N)cc2)nc1 [III-10]', 'Emission (nm)', 520),
  ('CCN(CC)c1ccc(/C=C(\C#N)c2ccc(C#N)cc2)cc1 [III-2]', 'Emission (nm)', 530),
  ('CN(C)CCN(C)c1ccc(/C=C(\C#N)c2ccc(C#N)cc2)cc1 [III-4]', 'Emission (nm)', 521),
  ('CCOC(=O)c1ccc(/C(C#N)=C/c2cc3sc4cc(N(C)C)sc4c3s2)cc1 [III-29]', 'Emission (nm)', 665),
  ('CN1CCc2cc(/C=C(\C#N)c3ccc(C#N)cc3)ccc21 [III-16]', 'Emission (nm)', 555),
  ('CN(CCO)c1cnc(/C=C(\C#N)c2ccc(C#N)cc2)cn1 [III-6]', 'Emission (nm)', 490),
  ('COCCOCCOCCOCCOCCN(C)c1cc2c(s1)-c1sc(/C=C(\C#N)c3ccc(C#N)cc3)cc1C2(C)C [III-35]', 'Emission (nm)', 690),
  ('N#C/C(=C\c1ccc(-c2ccc(N3CCOCCOCCOCCOCC3)cc2)s1)c1ccc(C#N)cc1 [III-24]', 'Emission (nm)', 662),
  ('CN(CCO)c1cc2c(s1)-c1sc(/C=C(\C#N)c3ccc(C#N)cc3)cc1[Si]2(C)C [III-33]', 'Emission (nm)', 705),
  ('CCN(CC)CCN(C)c1ccc(/C=C(\C#N)c2ccc(C#N)cc2)cn1 [III-9]', 'Emission (nm)', 490),
  ('CN(C)CCN(C)c1cnc(/C=C(\C#N)c2ccc(C#N)cc2)nc1 [III-12]', 'Emission (nm)', 542),
  ('CN(CCO)c1ccc(/C=C(\C#N)c2cnc(C#N)cn2)cc1 [III-14]', 'Emission (nm)', 550),
  ('CN(CCO)c1ccc2cc(/C=C(\C#N)c3ccc(C#N)cc3)sc2c1 [III-18]', 'Emission (nm)', 595),
  ('CN(CCO)c1cc2c(s1)-c1sc(/C=C(\C#N)c3ccc(S(N)(=O)=O)cc3)cc1[Si]2(C)C [III-32]', 'Emission (nm)', 690),
  ('CCN(CC)c1cc2sc(/C=C(\C#N)c3ccc(C#N)cc3)cc2s1 [III-20]', 'Emission (nm)', 620),
  ('CCN(CC)c1ccc(-c2ccc(/C=C(\C#N)c3ccc(C#N)cc3)s2)s1 [III-25]', 'Emission (nm)', 678),
  ('N#C/C(=C\c1cc2c3c(c1)CCCN3CCC2)c1ccc(C#N)cc1 [III-15]', 'Emission (nm)', 561),
  ('CN(CCO)c1cc2sc3cc(/C=C(\C#N)c4ccc(C#N)cc4)sc3c2s1 [III-28]', 'Emission (nm)', 662),
  ('CN(C)c1ccc(-c2ccc(/C=C(\C#N)c3ccc(C#N)cc3)s2)cc1 [III-23]', 'Emission (nm)', 661),
  ('CN(CCO)c1ccc(/C=C(\C#N)c2ccc(C#N)cn2)cc1 [III-13]', 'Emission (nm)', 545),
  ('CN(C)c1ccc(-c2ccc(/C=C(\C#N)c3ccc(C#N)cc3)cc2)cc1 [III-22]', 'Emission (nm)', 650),
  ('CN(CCO)c1ccc(/C=C(\C#N)c2ccc(C#N)cc2)cn1 [III-8]', 'Emission (nm)', 495),
  ('CN(C)c1ccc(/C=C(\C#N)c2ccc(C#N)cc2)cc1 [III-1]', 'Emission (nm)', 530);

* * *

# Tested on: F30-8Pepper-5 RNA aptamer
# Assay protocol: Binding to RNA aptamer, optical properties after binding
# Conditions used: after binding to RNA aptamer; relative method with Rhodamine 6G as the standard
The entries below are paired with their reported QY (−).
Result type: QY (−)

INSERT INTO results (compound, assay_system, reported_result) VALUES
  ('CN(C)CCN(C)c1cnc(/C=C(\C#N)c2ccc(C#N)cc2)cn1 [III-7]', 'F30-8Pepper-5 RNA aptamer', 0.42),
  ('CN(C)CCN(C)c1ccc(/C=C(\C#N)c2ccc(C#N)cc2)cc1 [III-4]', 'F30-8Pepper-5 RNA aptamer', 0.45),
  ('CN(CCO)c1cnc(/C=C(\C#N)c2ccc(C#N)cc2)cn1 [III-6]', 'F30-8Pepper-5 RNA aptamer', 0.57),
  ('CN(CCO)c1ccc(/C=C(\C#N)c2ccc(C#N)cc2)cc1 [III-3]', 'F30-8Pepper-5 RNA aptamer', 0.66),
  ('CN(CCO)c1ccc2cc(/C=C(\C#N)c3ccc(C#N)cc3)sc2c1 [III-18]', 'F30-8Pepper-5 RNA aptamer', 0.43),
  ('CN(CCO)c1cc2sc(/C=C(\C#N)c3ccc(C#N)cc3)cc2s1 [III-21]', 'F30-8Pepper-5 RNA aptamer', 0.58);

* * *

Items are presented alongside their recorded Glycerol/methanol fluorescence intensity ratio.
# Assay protocol: Fluorescence emission in glycerol versus methanol (viscosity response)
# Format: physicochemical
# Conditions used: 1×10^-5 M in glycerol and methanol, maximum excitation wavelength of each dye
Result type: Glycerol/methanol fluorescence intensity ratio

INSERT INTO measurements (smiles_text, reported_result) VALUES
  ('CN(CCO)c1cc2c(s1)-c1sc(/C=C(\C#N)c3ccc(C(N)=O)cc3)cc1C2(C)C', 489),
  ('CN(CCO)c1cc2c(s1)-c1sc(/C=C(\C#N)c3ccc(C#N)cc3)cc1[Si]2(C)C', 691),
  ('CCN(CC)c1ccc(/C=C(\C#N)c2ccc(C#N)cc2)cc1', 870),
  ('CN(C)CCN(C)c1cnc(/C=C(\C#N)c2ccc(C#N)cc2)nc1', 855);

* * *

# Assay protocol: Fluorescence emission in glycerol versus methanol (viscosity response)
# Assay type: physicochemical
# Conditions used: 1×10^-5 M in glycerol and methanol, maximum excitation wavelength of each dye
Everything with Glycerol/methanol fluorescence intensity ratio lower than 900 is not met; everything else, including exactly 900, is met.

INSERT INTO measurements (molecule, assigned_label) VALUES
  ('N#C/C(=C\c1ccc(-c2ccc(N3CCOCCOCCOCCOCC3)cc2)s1)c1ccc(C#N)cc1', 'not met'),
  ('CN(CCO)c1cnc(/C=C(\C#N)c2ccc(C#N)cc2)cn1', 'met'),
  ('CN(C)c1cc2sc(/C=C(\C#N)c3ccc(C#N)cc3)cc2s1', 'met'),
  ('CN(C)c1ccc(/C=C(\C#N)c2ccc(C#N)cc2)nc1', 'met'),
  ('CN(C)CCN(C)c1cnc(/C=C(\C#N)c2ccc(C#N)cc2)cn1', 'met'),
  ('CN(C)c1cc2sc3cc(/C=C(\C#N)c4ccc([S+](C)[O-])cc4)sc3c2s1 (stereo not drawn)', 'not met'),
  ('CNc1ccc2cc(/C=C(\C#N)c3ccc(C#N)cc3)sc2c1', 'not met'),
  ('CN(CCO)c1cc2c(s1)-c1sc(/C=C(\C#N)c3ccc(S(N)(=O)=O)cc3)cc1[Si]2(C)C', 'not met');
